A collection of molecules and their measured pIC50
- tgt: Avi-KRAS G12R (1-169) GppNHp/RAF1 RBD-3xFLAG (52-151) (Homo sapiens, UniProt P01116, G12R)
- Construct: Avi-KRAS G12R (1-169)
- Sequence (P01116 1-169 isoform P01116-2 G12R): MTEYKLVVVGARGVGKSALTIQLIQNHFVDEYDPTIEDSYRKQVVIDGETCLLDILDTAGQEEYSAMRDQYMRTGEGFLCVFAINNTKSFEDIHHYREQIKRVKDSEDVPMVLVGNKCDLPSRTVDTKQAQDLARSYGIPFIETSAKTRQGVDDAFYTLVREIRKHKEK
- measurementDescription: Raf1-KRAS G12R-GppNHP disruption HTRF assay (Biological Example 1)
- Format: binding
- conditionDetails: KRAS G12R, GppNHp-loaded; class symbols
pIC50: −log10 of the molar value.

Worked set:
{"molecule": "CN(C)C(=O)N1CC[C@H](N(c2nc(OC[C@@]34CCCN3C[C@H](F)C4)nc3c(F)c(-c4ccc(F)c5sc(N)c(C#N)c45)c(C(F)(F)F)cc23)C2CC2)C1 (atropisomer, axis not shown)", "propertyName": "pIC50", "result": "6.00 to 7.00"}
{"molecule": "CCN(c1nc(OC[C@@]23CCCN2C[C@H](F)C3)nc2c(F)c(-c3ccc(F)c4sc(N)c(C#N)c34)c(C(F)(F)F)cc12)[C@H]1CCN(C(=O)OC2CCC2)C1 (atropisomer, axis not shown)", "propertyName": "pIC50", "result": "> 7.00"}
{"molecule": "N#Cc1c(N)sc2c(F)ccc(-c3c(C(F)(F)F)cc4c(N(C5CC5)[C@H]5CCS(=O)(=O)C5)nc(OC[C@@]56CCCN5C[C@H](F)C6)nc4c3F)c12", "propertyName": "pIC50", "result": "5.00 to 6.00"}
{"molecule": "CCN(c1nc(OC[C@@]23CCCN2C[C@H](F)C3)nc2c(F)c(-c3ccc(F)c4sc(N)c(C#N)c34)c(C(F)(F)F)cc12)[C@H]1CC(=O)N(CCOC)C1 (atropisomer, axis not shown)", "propertyName": "pIC50", "result": "> 7.00"}
{"molecule": "CCN(c1nc(OC[C@@]23CCCN2C[C@H](F)C3)nc2c(F)c(-c3ccc(F)c4sc(N)c(C#N)c34)c(C(F)(F)F)cc12)[C@H]1CCN(C(=O)N2CCN(C(C)=O)CC2)C1 (atropisomer, axis not shown)", "propertyName": "pIC50", "result": "> 7.00"}

Reported pIC50 of CCN(c1nc(OC[C@@]23CCCN2C[C@H](F)C3)nc2c(F)c(-c3ccc(F)c4sc(N)c(C#N)c34)c(C(F)(F)F)cc12)[C@H]1CCN(C(=O)O[C@H]2CCOC2)C1 (atropisomer, axis not shown) : > 7.00

Reported pIC50 of CCN(c1nc(OC[C@@]23CCCN2C[C@H](F)C3)nc2c(F)c(-c3ccc(F)c4sc(N)c(C#N)c34)c(C(F)(F)F)cc12)[C@H]1CCN(C(=O)CC(F)F)C1 (atropisomer, axis not shown) : > 7.00
